FYI, the data here is from patent US11773094B2.

Kindly supply the reported EC50 values for the records listed here.
- tested-target: hFXR (Homo sapiens, UniProt Q96RI1)
- Sequence (Q96RI1 whole entry): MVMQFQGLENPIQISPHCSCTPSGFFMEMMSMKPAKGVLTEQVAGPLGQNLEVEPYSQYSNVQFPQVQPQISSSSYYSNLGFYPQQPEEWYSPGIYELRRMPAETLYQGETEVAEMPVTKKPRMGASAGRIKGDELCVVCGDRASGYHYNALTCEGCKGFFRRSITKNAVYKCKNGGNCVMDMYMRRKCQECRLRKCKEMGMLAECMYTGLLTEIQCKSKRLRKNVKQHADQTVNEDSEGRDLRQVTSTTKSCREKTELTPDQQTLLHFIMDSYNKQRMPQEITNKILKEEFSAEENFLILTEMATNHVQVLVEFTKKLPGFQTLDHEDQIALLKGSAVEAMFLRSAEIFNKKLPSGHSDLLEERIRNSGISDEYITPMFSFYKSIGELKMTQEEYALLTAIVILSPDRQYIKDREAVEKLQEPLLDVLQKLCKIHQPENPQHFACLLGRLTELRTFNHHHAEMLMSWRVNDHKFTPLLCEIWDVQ
- Sequence (P19793 whole entry partner): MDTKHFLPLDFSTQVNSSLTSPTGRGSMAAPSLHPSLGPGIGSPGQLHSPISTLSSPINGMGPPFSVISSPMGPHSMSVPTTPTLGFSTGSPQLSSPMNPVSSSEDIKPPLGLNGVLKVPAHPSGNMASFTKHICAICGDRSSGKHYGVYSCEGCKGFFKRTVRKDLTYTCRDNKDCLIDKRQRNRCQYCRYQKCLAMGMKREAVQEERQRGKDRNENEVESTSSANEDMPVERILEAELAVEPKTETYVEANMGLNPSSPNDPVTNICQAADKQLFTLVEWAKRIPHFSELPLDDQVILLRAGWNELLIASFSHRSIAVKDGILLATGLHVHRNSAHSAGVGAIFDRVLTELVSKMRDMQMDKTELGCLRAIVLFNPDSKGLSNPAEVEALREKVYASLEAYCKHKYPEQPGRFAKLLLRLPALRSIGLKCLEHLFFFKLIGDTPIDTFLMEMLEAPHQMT
- assay-notes: In Vitro FXR Assay (TK): TK-ECRE-luc reporter in transfected CV-1 cells
- condition-details: CV-1 cells transfected with hFXR, hRXR, pCMX-YFP, 18 hrs incubation, luminescence

COc1c(C)cc(C23CCC(CN(c4cc(-c5cnn(C(C)(C)C)c5)ncn4)C(=O)[C@H]4CC[C@H](OC(=O)N5CC(O)C5)CC4)(CC2)CC3)cc1C [Compound 2.37] yielded EC50 of 10 to 1000 nM

EC50 reading for COc1ccc(C23CCC(CN(c4cc(-c5cnn(C(C)(C)C)c5)ccn4)C(=O)[C@H]4CC[C@H](OC(=O)NC5CCSCC5)CC4)(CC2)CC3)cc1C [Compound 2.29] : 10 to 1000 nM

// EC50 lookup, compound = COc1ccc(C23CCC(CN(c4cc(-c5cnc(C(C)(C)C)s5)ccn4)C(=O)[C@H]4CC[C@H](OC(=O)N5CC(S(C)(=O)=O)C5)CC4)(CC2)CC3)cc1C [Compound 2.03] , result: ≤ 10 nM

Quick note, EC50 for COc1ccc([C@H]2CC[C@H](CN(c3cc(-c4coc(C(C)(C)C)n4)ccn3)C(=O)[C@H]3CC[C@H](OC(=O)N4CC(O)C4)CC3)CC2)cc1C [Compound 1.04] landed at 10 to 1000 nM

Measured EC50 of COc1ccc(C23CCC(CN(c4cc(-c5coc(C(C)(C)C)n5)ccn4)C(=O)[C@H]4CC[C@H](OC(=O)N5CCC(N(C)C)C5)CC4)(CC2)CC3)cc1C (some centres unmarked) [Compound 2.16] : 10 to 1000 nM

====

Assignment: determine reported EC50 for the given compounds.
- tested-target: hFXR (Homo sapiens, UniProt Q96RI1)
- Construct: expressed in transfected cells; host or cells: CV-1 cells
- assay-notes: In Vitro FXR Assay (TK): TK-ECRE-luc reporter in transfected CV-1 cells
- Assay type: cell-based
- condition-details: CV-1 cells transfected with hFXR, hRXR, pCMX-YFP, 18 hrs incubation, luminescence

Documented EC50 of COc1ccc(C23CCC(CN(c4cc(-c5coc(C(C)(C)C)n5)ccn4)C(=O)[C@H]4CC[C@H](OC(=O)N5CC(C)(O)C5)CC4)(CC2)CC3)cc1C [Compound 2.12] : ≤ 10 nM

Reported EC50 of COc1ccc(C23CCC(CN(c4cc(-n5ccc(C(C)(C)C)n5)ccn4)C(=O)[C@H]4CC[C@H](OC(=O)N5CC(O)C5)CC4)(CC2)CC3)cc1C [Compound 2.35] : 10 to 1000 nM

COc1ccc(C23CCC(CN(c4cc(-c5cnn(C(C)(C)C)c5)c(F)cn4)C(=O)[C@H]4CC[C@H](OC(=O)N5CC(O)C5)CC4)(CC2)CC3)cc1C [Compound 1.12] yielded EC50 of ≤ 10 nM

Memo: COc1ccc(C23CCC(CN(c4cc(-c5coc(C(C)(C)C)n5)ccn4)C(=O)[C@H]4CC[C@H](OC(=O)N5CC(OCCO)C5)CC4)(CC2)CC3)cc1C [Compound 2.14] , reported EC50: ≤ 10 nM

Item: CCC(C)(C)n1cc(-c2ccnc(N(CC34CCC(c5ccc(OC)c(C)c5)(CC3)CC4)C(=O)[C@H]3CC[C@H](OC(=O)N4CC(O)C4)CC3)c2)cn1 [Compound 4] | EC50: ≤ 10 nM

====

Would you kindly list EC50 for each of these compounds?
- tested-target: hFXR (Homo sapiens, UniProt Q96RI1)
- assay-notes: In Vitro FXR Assay (TK): TK-ECRE-luc reporter in transfected CV-1 cells
- condition-details: CV-1 cells transfected with hFXR, hRXR, pCMX-YFP, 18 hrs incubation, luminescence

// `CCC(C)(CC)n1cc(-c2ccnc(N(CC34CCC(c5ccc(OC)c(C)c5)(CC3)CC4)C(=O)[C@H]3CC[C@H](OC(=O)N4CC(O)C4)CC3)c2)cn1` : EC50 value = ≤ 0.01 µM

Note to self: EC50 recorded for `COc1ccc(C23CCC(CN(c4cc(-c5cnn(C(C)(C)C)c5)ccn4)C(=O)[C@H]4CC[C@H](OC(=O)NC5CCOCC5)CC4)(CC2)CC3)cc1C` was ≤ 0.01 µM

In plain terms, `COc1ccc([C@H]2CC[C@H](CN(c3cc(-c4cnn(C(C)(C)C)c4)ccn3)C(=O)[C@H]3CC[C@H](OC(=O)NC4CCOCC4)CC3)CC2)cc1C` has a documented EC50 of 0.01 to 1 µM

The recorded EC50 for `COc1ccc(C23CCC(CN(c4cc(-c5cnc(C(C)(C)C)s5)ccn4)C(=O)[C@H]4CC[C@H](OC(=O)NCCO)CC4)(CC2)CC3)cc1C` is ≤ 0.01 µM

EC50 recorded for this compound, `CCC(C)(C)n1cc(-c2ccnc(N(CC34CCC(c5ccc(OC)c(C)c5)(CC3)CC4)C(=O)[C@H]3CC[C@H](OC(=O)NCCCO)CC3)c2)cn1` , is ≤ 0.01 µM

Briefly, EC50 measured for `CCC(C)(CC)n1cc(-c2ccnc(N(CC34CCC(c5ccc(OC)c(C)c5)(CC3)CC4)C(=O)[C@H]3CC[C@H](OC(=O)N4CC(C)(O)C4)CC3)c2)cn1` : ≤ 0.01 µM

Form field EC50, entry `COc1ccc(C23CCC(CN(c4cc(-c5cnn(C(C)(C)C)c5)ccn4)C(=O)[C@H]4CC[C@H](OC(=O)N5CC[C@H](O)C5)CC4)(CC2)CC3)cc1C` : ≤ 0.01 µM

Quick note, EC50 for `COc1ccc(C23CCC(CN(c4cc(-c5coc(C(C)(C)C)n5)ccn4)C(=O)[C@H]4CC[C@H](OC(=O)NCCCO)CC4)(CC2)CC3)cc1C` landed at ≤ 0.01 µM

Looking up `COc1ccc(C23CCC(CN(c4cc(-c5cnn(C(C)(C)C)c5)ccn4)C(=O)[C@H]4CC[C@H](OC(=O)N5CCC(O)CC5)CC4)(CC2)CC3)cc1C` , I see its EC50 listed as ≤ 0.01 µM

EC50 reading for `COc1ncc(C23CCC(CN(c4cc(-c5cnn(C(C)(C)C)c5)ccn4)C(=O)[C@H]4CC[C@H](OC(=O)N5CC(O)C5)CC4)(CC2)CC3)cc1C` : ≤ 0.01 µM

Lab note: `COc1ccc(C23CCC(CN(c4cncc(-c5cnn(C(C)(C)C)c5)c4)C(=O)[C@H]4CC[C@H](OC(=O)N5CC(O)C5)CC4)(CC2)CC3)cc1C` gave EC50 of ≤ 0.01 µM

// field: EC50; key: `COc1ccc([C@H]2CC[C@H](CN(c3cc(-c4coc(C(C)(C)C)n4)ccn3)C(=O)[C@H]3CC[C@H](OC(=O)NC4CCOCC4)CC3)CC2)cc1C` ; value = 0.01 to 1 µM

Measured EC50, `COc1ccc([C@H]2CC[C@H](CN(c3cc(-c4cnc(C(C)(C)C)s4)ccn3)C(=O)[C@H]3CC[C@H](OC(=O)NC4CCOCC4)CC3)CC2)cc1C` : 0.01 to 1 µM

EC50 reported for this compound `COc1ccc(C23CCC(CN(c4cncc(-c5cnn(C(C)(C)C)c5)n4)C(=O)[C@H]4CC[C@H](OC(=O)N5CC(O)C5)CC4)(CC2)CC3)cc1C` : 0.01 to 1 µM

EC50 recorded for this compound, `COc1ccc(C23CCC(CN(c4cc(-c5cnn(C(C)(C)C)c5)ccn4)C(=O)[C@H]4CC[C@H](OC(=O)NC5COC5)CC4)(CC2)CC3)cc1C` , is ≤ 0.01 µM

Notebook: `COc1ccc([C@H]2CC[C@H](CN(c3cc(-c4coc(C(C)(C)C)n4)ccn3)C(=O)[C@H]3CC[C@H](OC(=O)N4CCC(O)CC4)CC3)CC2)cc1C` , EC50 read as 0.01 to 1 µM

Entry `COc1ccc(C23CCC(CN(c4cc(-c5cnc(C(C)(C)C)s5)ccn4)C(=O)[C@H]4CC[C@H](OC(=O)NC5CCOCC5)CC4)(CC2)CC3)cc1C` , EC50 reported as 0.01 to 1 µM

# EC50 of `COc1ccc([C@H]2CC[C@H](CN(c3cc(-c4cnc(C(C)(C)C)s4)ccn3)C(=O)[C@H]3CC[C@H](OC(=O)N4CCC(O)CC4)CC3)CC2)cc1C` = 0.01 to 1 µM

What the record says about `COc1ccc(C23CCC(CN(c4cc(-c5coc(C(C)(C)C)n5)ccn4)C(=O)[C@H]4CC[C@H](OC(=O)N5CC[C@H]5CO)CC4)(CC2)CC3)cc1C` : EC50 is ≤ 0.01 µM

Looking up `CCC(C)(CC)n1cc(-c2ccnc(N(CC34CCC(c5ccc(OC)c(C)c5)(CC3)CC4)C(=O)[C@H]3CC[C@H](OC(=O)NCCCO)CC3)c2)cn1` , I see its EC50 listed as ≤ 0.01 µM

EC50 reported for this compound `COc1ccc(C23CCC(CN(c4cccc(-c5cnn(C(C)(C)C)c5)n4)C(=O)[C@H]4CC[C@H](OC(=O)N5CC(O)C5)CC4)(CC2)CC3)cc1C` : 0.01 to 1 µM

Looking up `COc1ccc(C23CCC(CN(c4cc(-c5coc(C(C)(C)C)n5)ccn4)C(=O)[C@H]4CC[C@H](OC(=O)NC5CCOCC5)CC4)(CC2)CC3)cc1C` , I see its EC50 listed as ≤ 0.01 µM
